# Test system: methylphenidate
# measurementNotes: Methylphenidate antagonism in mice (antagonism of biting of corrugated paper)
# Assay type: in vivo, NMRI male mice
# conditionDetails: i.p. test substance; mice
parameter: Methylphenidate antagonism, duration of peak effect (h)
One number for each entry, in h.

Some compounds with recorded Methylphenidate antagonism, duration of peak effect:
{"columns": ["compound", "number"],
 "data": [
  ["OCCN1CCN(CC=CC2c3ccccc3Sc3ccc(C(F)(F)F)cc32)CC1 (stereo not shown)", 10],
  ["CN(C)CC=CC1c2ccc(F)cc2Sc2ccc(C(F)(F)F)cc21 (stereo not shown)", 8],
  ["OCCN1CCN(CC=CC2c3ccc(F)cc3Sc3ccc(C(F)(F)F)cc32)CC1 (stereo not shown)", 30],
  ["CN(C)CC/C=C1/c2ccccc2Sc2ccc(Cl)cc21 [α-chlorprothixen, reference compound]", 2],
  ["OCCC1CCN(CC=CC2c3ccc(F)cc3Sc3ccc(C(F)(F)F)cc32)CC1 (stereo not shown)", 72]
]}

// for each compound in input: emit Methylphenidate antagonism, duration of peak effect
1. CN(C)CC=CC1c2ccccc2Sc2ccc(Cl)cc21 (stereo not shown)
2. OCCC1CCN(CC=CC2c3ccc(F)cc3Oc3ccc(C(F)(F)F)cc32)CC1 (stereo not shown)
3. OCCN1CCN(CC=CC2c3ccccc3Sc3ccc(Cl)cc32)CC1 (stereo not shown)
4. OCCN1CCN(CC/C=C2/c3ccccc3Sc3ccc(C(F)(F)F)cc32)CC1 [α-flupenthixol, reference compound]

A:
[3, 17, 10, 6]

Q: # get_value(readout= Methylphenidate antagonism, duration of peak effect, system= methylphenidate) for OCCN1CCN(CC/C=C2/c3ccccc3Sc3ccc(Cl)cc32)CC1 [α-clopenthixol, reference compound]
A: 6
